Target: Human M4 (Homo sapiens, UniProt P08173)
Construct: expressed in transfected cells; host or cells: CHO-K1 (American Type Culture Collection), stably expressing M4 and Gqi5
Sequence (P08173 whole entry): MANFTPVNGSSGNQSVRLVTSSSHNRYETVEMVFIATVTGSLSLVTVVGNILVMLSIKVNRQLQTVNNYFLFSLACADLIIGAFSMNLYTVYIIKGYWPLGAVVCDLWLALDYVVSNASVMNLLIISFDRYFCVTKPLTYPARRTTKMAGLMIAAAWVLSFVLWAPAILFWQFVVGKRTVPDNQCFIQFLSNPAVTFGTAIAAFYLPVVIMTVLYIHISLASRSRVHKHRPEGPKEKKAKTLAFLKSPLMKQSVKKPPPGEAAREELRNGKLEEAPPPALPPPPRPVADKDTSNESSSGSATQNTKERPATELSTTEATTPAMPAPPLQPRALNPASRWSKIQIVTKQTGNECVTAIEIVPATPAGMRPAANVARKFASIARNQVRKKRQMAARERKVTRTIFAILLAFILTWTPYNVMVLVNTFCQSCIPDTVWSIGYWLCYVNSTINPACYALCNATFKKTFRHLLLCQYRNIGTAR
Assay: mAChR M4 cell-based functional assay (calcium flux, potentiation of EC20 acetylcholine response)
Conditions: % ACh maximum at 30 μM, M4/Gqi5/CHO-K1 cells
Measure name: Emax at 30 µM (%)
Only the number, expressed in %, is required.

Below, 3 molecules whose answers are already recorded.
- Molecule: "Cc1c2c(N)c(C(=O)NC3CCC3)sc2nn2cnnc12 [Compound 6]"
  Measure name: "Emax at 30 µM"
  Measurement: 71.8
- Molecule: "Cc1c2c(N)c(C(=O)NC3CC3)sc2nn2cnnc12 [Compound 5]"
  Measure name: "Emax at 30 µM"
  Measurement: 74.2
- Molecule: "Cc1c2c(N)c(C(=O)NC3Cc4ccccc4C3)sc2nn2cnnc12 [Compound 3]"
  Measure name: "Emax at 30 µM"
  Measurement: 82.3

Now examine the next entry.
Query: Which measured Emax at 30 µM value corresponds to Cc1c2c(N)c(C(=O)N3CCCC3)sc2nn2cnnc12 [Compound 2] ?
Result: 72.2

The reported numbers originate from patent US10189857B2.
